Tested on: BDF1 mice, P388 leukemia ip, median survival T/C
Assay: NCI In Vivo Anticancer Drug Screen. Data for tumor model P388 Leukemia (intraperitoneal) in B6D2F1 (BDF1) mice
Conditions: endpoint: median survival time; dose: 400.0 mg/kg/injection; schedule: Q04DX003 (ip); vehicle: saline with Tween-80; higher = longer survival
Description: The antitumor activity of compounds was measured in mice bearing transplantable tumors. Survival or tumor size were measured and the results are expressed as the measurement made in the treated group (T) divided by the measurement made in the vehicle treated control group (C). The tumor model used in this assay is P388 Leukemia (intraperitoneal) in B6D2F1 (BDF1) mice
Inconclusive results and toxic doses are left out.
The reader will find reported T/C values listed item by item below.

Task: GET /values?readout=T/C&item= `C[C@]12CC[C@@H]3c4ccc(OC(=O)Cc5ccc(N(CCCl)CCCl)cc5)cc4CC[C@H]3[C@@H]1CC[C@@H]2OC(=O)Cc1ccc(N(CCCl)CCCl)cc1`
Result: 112 % of control

---

Entries annotated with measured T/C
Tested on: BDF1 mice, P388 leukemia ip, median survival T/C
Assay: NCI In Vivo Anticancer Drug Screen. Data for tumor model P388 Leukemia (intraperitoneal) in B6D2F1 (BDF1) mice
Details: endpoint: median survival time; dose: 6.25 mg/kg/injection; schedule: Q01DX009 (ip); vehicle: saline with Tween-80; higher = longer survival
Toxic doses and inconclusive results are not listed.

Recorded T/C, per entry:
Task: Dear colleague, I am looking for the recorded T/C of the following compound: `O=C1c2cscc2C(=O)c2c(Cl)sc(Cl)c21`
Result: 101 % of control

Task: Here is the next compound: `N=C(N)c1ccc(-c2ccc(-c3ccc(C(=N)N)cc3)o2)cc1`
Result: 119 % of control

Task: Try this compound too: CC(C)C(C)/C=C\C(C)C1CCC2C3=CCC4CC(O)CCC4(C)C3CCC21C (stereo not given)
Result: 100 % of control

New cases:
Task: Fill blank: measured T/C of the compound `Cc1ccc(N2CCN(CCCN3CCN(c4ccccc4Cl)CC3)CC2)cc1` is ____.
Result: 86 % of control

Task: Try the compound CC(=O)[O][Hg][CH]1CCC2OC1CC[CH]2[Hg][O]C(C)=O (stereo not given)
Result: 111 % of control

Task: Next compound: `O=[N+]([O-])c1ccc(N=Nc2c(Cl)cc(O)cc2Cl)cc1`
Result: 95 % of control

Task: Could you do the same for COc1ccc2c(c1OC(C)=O)-c1cc(OC(C)=O)cc3c1C(C2)N(C(=O)CBr)CC3 (stereo not given) , please?
Result: 105 % of control

Task: And for COc1ccc2c(c1)NC(c1ccccc1C(=O)O)c1cccn1-2 (stereo not given) ?
Result: 90 % of control

Task: Lookup `CCCCCCCS(=O)CCCCCCC`
Result: 102 % of control

Task: Note, next up: `C[N+](C)(CC(=O)Nc1ccc(Cl)c(Cl)c1)Cc1ccc(Cl)c(Cl)c1`
Result: 120 % of control

---

System: BDF1 mice, P388 leukemia ip, median survival T/C
Experiment: NCI In Vivo Anticancer Drug Screen. Data for tumor model P388 Leukemia (intraperitoneal) in B6D2F1 (BDF1) mice
Settings: endpoint: median survival time; dose: 100.0 mg/kg/injection; schedule: Q01DX009 (ip); vehicle: saline with Tween-80; higher = longer survival
Toxic doses and inconclusive results are not listed.
Readout Kind: T/C

Task: Using the record for CS(=O)CC(O)(c1ccccc1)c1ccncc1 (configuration not stated) , report its T/C.
Result: 112 % of control

Task: Entry to check: `Nc1nc(N)c2cc([N+](=O)[O-])ccc2n1`
Result: 101 % of control

Task: Also `CCCn1cnc2c(=S)nc[nH]c21` , if possible.
Result: 108 % of control
